- TESTED_SYSTEM: CB1 receptor (HEK293 CB1 β-arrestin cells) (Homo sapiens, UniProt P21554)
- Construct: host or cells: HEK293 CB1 β-arrestin cells (PathHunter)
- Sequence (P21554 whole entry): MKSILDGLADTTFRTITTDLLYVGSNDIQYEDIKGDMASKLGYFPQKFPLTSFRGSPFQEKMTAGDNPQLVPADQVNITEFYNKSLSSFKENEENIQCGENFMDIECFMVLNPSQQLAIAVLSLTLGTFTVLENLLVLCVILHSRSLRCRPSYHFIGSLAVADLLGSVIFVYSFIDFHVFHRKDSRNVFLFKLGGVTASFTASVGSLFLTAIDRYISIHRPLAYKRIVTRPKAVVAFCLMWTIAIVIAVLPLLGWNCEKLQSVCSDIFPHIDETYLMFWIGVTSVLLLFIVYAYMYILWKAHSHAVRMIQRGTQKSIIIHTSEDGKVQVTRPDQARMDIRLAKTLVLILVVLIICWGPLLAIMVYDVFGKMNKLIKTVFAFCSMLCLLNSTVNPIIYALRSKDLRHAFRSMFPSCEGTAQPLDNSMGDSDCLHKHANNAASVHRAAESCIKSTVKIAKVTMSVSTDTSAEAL
- TEST_SUMMARY: PathHunter β-Arrestin assay, enhancement of anandamide stimulation
- Assay type: cell-based
- MEASUREMENT_PARAMETERS: 300 nM test compound; maximum % increase in stimulation caused by anandamide
Quick reference: Potency % Enhancement 300 nM of the listed items.
Give a bare numeral; the unit % is implied.

# annotated cases, reported Potency % Enhancement 300 nM shown
N#CC(C#N)C(c1ccccc1)c1c(-c2ccccc2)[nH]c2ccccc12 (stereo not drawn) = 0
O=C(C(c1ccccc1)c1c(-c2ccccc2)[nH]c2ccccc12)C(F)(F)F (stereo not drawn) = 0
Cc1ccc2c(C(c3ccccc3)C(C#N)C#N)c(-c3ccccc3)[nH]c2c1 (stereo not drawn) = 68.7
FC(F)(F)CC(c1ccccc1)c1c(-c2ccccc2)[nH]c2ccccc12 (stereo not drawn) = 0
N#CCC(c1ccccc1)c1c(-c2ccccc2)[nH]c2ccccc12 (stereo not drawn) = 0

// field: Potency % Enhancement 300 nM; key: Cc1ccc2c(C(CC#N)c3ccccc3)c(-c3ccccc3)[nH]c2c1 (stereo not drawn) ; value = 21.6

----------
- TEST_SUMMARY: in vitro
- MEASUREMENT_PARAMETERS: both, human, microsomes, pH 7.4
- Description: Human and Rat Liver Microsomal Stability Assay The metabolic stability of the compounds of the Formula (I) was measured by determination of the rate of compound disappearance when incubated in the presence of both human and rat liver microsomes. […] Human and rat liver microsomes were obtained from a commercial source. […] Samples were incubated for a 45 minute period and removed at 5 time points and test compounds were analysed by LC-MS/MS. […]
OUTCOME_MEASURE: microsomal CLint at 3 μM (µL/min/mg)
Give a bare numeral; the unit µL/min/mg is implied.

Cc1ccc2c(C(CC(F)(F)F)c3cccs3)c(-c3ccccc3)[nH]c2c1 (stereo not drawn) = 5
Cc1ccc2c(C(C[N+](=O)[O-])c3cccs3)c(-c3ccccc3)[nH]c2c1 (stereo not drawn) = 37.8

Now for another entry.
// field: microsomal CLint at 3 μM; key: Cc1ccc2c(C(C[N+](=O)[O-])c3ccccc3)c(-c3ccccc3)[nH]c2c1 (stereo not drawn) ; value = 29.1

----------
- TESTED_SYSTEM: CB1 receptor (HEK293 CB1 β-arrestin cells) (Homo sapiens, UniProt P21554)
- Construct: host or cells: HEK293 CB1 β-arrestin cells (PathHunter)
- TEST_SUMMARY: PathHunter β-Arrestin assay, enhancement of anandamide stimulation
- Format: cell-based
- MEASUREMENT_PARAMETERS: 1000 nM test compound; maximum % increase in stimulation caused by anandamide
Quick reference: Potency % Enhancement 1000 nM of the listed items.
Answer format: number, then unit.

# annotated cases, reported Potency % Enhancement 1000 nM shown
c1ccc(-c2[nH]c3ccccc3c2-n2nnnc2-c2ccccc2)cc1 = 0%
O=C(O)CC(c1ccccc1)c1c(-c2ccccc2)[nH]c2ccc(Cl)cc12 (stereo not shown) = 0%
c1ccc(-c2[nH]c3ccccc3c2-c2nnnn2-c2ccccc2)cc1 = 0%

Now for another entry.
// field: Potency % Enhancement 1000 nM; key: NC(=O)NCC(c1ccccc1)c1c(-c2ccccc2)[nH]c2ccccc12 (stereo not shown) ; value = 0%
